B1: Pistol ribozyme (parent)
chain: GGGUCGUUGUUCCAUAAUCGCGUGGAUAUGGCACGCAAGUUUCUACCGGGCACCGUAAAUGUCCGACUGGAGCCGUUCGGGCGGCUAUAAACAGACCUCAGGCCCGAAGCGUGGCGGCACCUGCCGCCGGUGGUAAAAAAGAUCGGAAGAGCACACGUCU

Variants of: B1
procedureSummary: aptazyme ON/OFF ratio, guanine; higher = stronger switching; co-transcriptional cleavage with and without guanine
Entries and their measured aptazyme ON/OFF ratio follow.

[
  {
    "variantId": "U8C G9U C12A",
    "aptazyme ON/OFF ratio": 1.37
  },
  {
    "variantId": "U7G U8A U10G U11C C12G C13A",
    "aptazyme ON/OFF ratio": 1.4
  },
  {
    "variantId": "U7A U8A U10C U11A C12G C13U",
    "aptazyme ON/OFF ratio": 1.12
  },
  {
    "variantId": "U7A U11G C12U C13G",
    "aptazyme ON/OFF ratio": 1.06
  },
  {
    "variantId": "U7A G9C U10A U11C C13U",
    "aptazyme ON/OFF ratio": 1.05
  },
  {
    "variantId": "U7A U8C G9A U10G C12U",
    "aptazyme ON/OFF ratio": 1.23
  },
  {
    "variantId": "U7A U8A G9U U11A C12A C13U",
    "aptazyme ON/OFF ratio": 1.22
  },
  {
    "variantId": "U7A U8C G9A C12U C13G",
    "aptazyme ON/OFF ratio": 1.09
  },
  {
    "variantId": "U7C G9U U10C U11G C12G C13A",
    "aptazyme ON/OFF ratio": 1.1
  },
  {
    "variantId": "U8G G9C U10C C12G C13G",
    "aptazyme ON/OFF ratio": 1.06
  },
  {
    "variantId": "U7C U8C G9U U11A C12A",
    "aptazyme ON/OFF ratio": 1.21
  },
  {
    "variantId": "U7C U11C C12G C13G",
    "aptazyme ON/OFF ratio": 1.29
  },
  {
    "variantId": "U7G G9A U10G U11C C12A C13U",
    "aptazyme ON/OFF ratio": 1.1
  },
  {
    "variantId": "U7A U8C G9C U10G U11A C12U",
    "aptazyme ON/OFF ratio": 1.04
  },
  {
    "variantId": "U7G U8G G9A U10A U11A C12A C13A",
    "aptazyme ON/OFF ratio": 1.11
  },
  {
    "variantId": "U7G G9U U10A U11G C13U",
    "aptazyme ON/OFF ratio": 1.29
  },
  {
    "variantId": "U7C U8A G9U U10G U11A C12U",
    "aptazyme ON/OFF ratio": 1.06
  },
  {
    "variantId": "U7C U8A G9A U11A C13A",
    "aptazyme ON/OFF ratio": 1.17
  },
  {
    "variantId": "U8C U10C C12G C13A",
    "aptazyme ON/OFF ratio": 1.37
  },
  {
    "variantId": "U7G U8A G9A U10C C12U C13A",
    "aptazyme ON/OFF ratio": 1.08
  },
  {
    "variantId": "U7C U10A U11C C12G C13U",
    "aptazyme ON/OFF ratio": 1.22
  },
  {
    "variantId": "U7G U10A C12U",
    "aptazyme ON/OFF ratio": 1.16
  },
  {
    "variantId": "U7C G9A U10C C13G",
    "aptazyme ON/OFF ratio": 1.06
  },
  {
    "variantId": "U7A U8C G9A U10G U11A C13A",
    "aptazyme ON/OFF ratio": 1.04
  },
  {
    "variantId": "U7A G9C U10A C12A C13U",
    "aptazyme ON/OFF ratio": 1.23
  },
  {
    "variantId": "U7C U8G G9U U10G U11G C13G",
    "aptazyme ON/OFF ratio": 1.06
  },
  {
    "variantId": "U7C U8C G9C U10G U11G C13A",
    "aptazyme ON/OFF ratio": 1.06
  },
  {
    "variantId": "U7G U8G U10A U11A C13A",
    "aptazyme ON/OFF ratio": 1.33
  },
  {
    "variantId": "U7A U8C G9C U10G U11C C12G C13G",
    "aptazyme ON/OFF ratio": 1.18
  },
  {
    "variantId": "U7A G9A U11C C12U",
    "aptazyme ON/OFF ratio": 1.17
  },
  {
    "variantId": "U7G U8C G9U U10C U11C C12A C13G",
    "aptazyme ON/OFF ratio": 1.22
  },
  {
    "variantId": "U7G G9A U11G C12G",
    "aptazyme ON/OFF ratio": 1.17
  },
  {
    "variantId": "U8A U10A U11G C12U C13U",
    "aptazyme ON/OFF ratio": 1.4
  },
  {
    "variantId": "G9U U10A U11G",
    "aptazyme ON/OFF ratio": 2.39
  },
  {
    "variantId": "U7A U8A G9C U10C U11G C12U C13G",
    "aptazyme ON/OFF ratio": 1.05
  }
]
